Parameter IC50 at 48 h: see the listing below.
# ASSAY_PROTOCOL: Cytotoxic assay (MTT)
# TEST_PARAMETERS: human, MCF-7 cells
PROPERTY_LABEL: IC50 at 48 h

| COMPOUND | OBS_VALUE |
| --- | --- |
| Cc1cc2c(c(=O)o1)C[C@@H]1[C@@]3(C)[C@@H](O)CC(=O)OC(C)(C)[C@@H]3[C@H](O)C[C@@]1(C)O2 | > 40 µM |
| CC(=O)O[C@@H]1C[C@@]2(C)Oc3cc(C)oc(=O)c3C[C@@H]2[C@@]2(C)[C@H](CC(=O)O)OC(C)(C)[C@H]12 | > 40 µM |
| CC(=O)OC1CC2(C)Oc3cc(C)oc(=O)c3CC2C2(C)C=CC(=O)C(C)(C)C12 (centres unmarked) | > 40 µM |
| CC(=O)O[C@H]1CC(=O)OC(C)(C)[C@@H]2[C@H](OC(C)=O)C[C@@]3(C)Oc4cc(C)oc(=O)c4C[C@@H]3[C@@]12C | > 40 µM |
| COC(=O)C[C@@H]1OC(C)(C)[C@@H]2[C@H](OC(C)=O)C[C@@]3(C)Oc4cc(C)oc(=O)c4C[C@@H]3[C@@]12C | > 40 µM |
| CC(=O)OC1CC2(C)Oc3cc(C)oc(=O)c3CC2C2(C)C(O)CC(=O)OC(C)(C)C12 (centres unmarked) | > 40 µM |
| Cc1cc2c(c(=O)o1)C[C@@H]1[C@@]3(C)[C@@H](O)CC(=O)OC(C)(C)[C@@H]3CC[C@@]1(C)O2 | > 40 µM |
| C=C(C)[C@@H]1[C@H](OC(C)=O)C[C@@]2(C)Oc3cc(C)oc(=O)c3C[C@@H]2[C@@]1(C)[C@H](CC(=O)OC)OC(C)=O | > 40 µM |
